Where do these numbers come from? They come from patent US8968883B2.

Solubility anisole values by entry
- test method notes: Solubility in processing solvents (Table 1, Compound Properties)
- Format: physicochemical
- assay setup: solvent anisole
Kindly provide the numeric value in mg/mL only, without the unit symbol.

Fill in the blank: the reported Solubility anisole of c1ccc(-c2ccc(N(c3ccc(-c4cccc5ccccc45)cc3)c3ccc4ccc5c6ccccc6ccc5c4c3)cc2)cc1 is ____.
23.7

Others:
Fill in the blank: the reported Solubility anisole of Cc1ccc(N(c2ccc(-c3ccc(-c4ccccc4)cc3)cc2)c2ccc3ccc4c5ccccc5ccc4c3c2)c(C)c1 is ____.
3.6

And then c1ccc(-c2ccc(N(c3ccc(-c4cccc(-c5ccccc5)c4)cc3)c3ccc4ccc5c6ccccc6ccc5c4c3)cc2)cc1 , what is it?
23.9

And then CC(C)(C)c1ccc(N(c2ccc(-c3ccccc3)cc2)c2ccc3ccc4c5ccccc5ccc4c3c2)cc1 , what is it?
22.4

* * *

- test method notes: Solubility in processing solvents (Table 1, Compound Properties)
- Format: physicochemical
- assay setup: solvent toluene
Solubility toluene values by entry
Kindly format the answer as number then unit.

Some entries whose results are on file:
Fill in the blank: the reported Solubility toluene of Cc1ccc(N(c2ccc(-c3ccc(-c4ccccc4)cc3)cc2)c2ccc3ccc4c5ccccc5ccc4c3c2)c(C)c1 [Compound C4] is ____.
1.0 mg/mL

And then CC(C)(C)c1ccc(N(c2ccc(-c3ccccc3)cc2)c2ccc3ccc4c5ccccc5ccc4c3c2)cc1 [Compound C3] , what is it?
22.2 mg/mL

And then c1ccc(-c2ccc(N(c3ccc(-c4cccc5ccccc45)cc3)c3ccc4ccc5c6ccccc6ccc5c4c3)cc2)cc1 [Compound C5] , what is it?
24.4 mg/mL

Turning now to a further molecule:
Fill in the blank: the reported Solubility toluene of c1ccc(-c2ccc(N(c3ccc(-c4cccc(-c5ccccc5)c4)cc3)c3ccc4ccc5c6ccccc6ccc5c4c3)cc2)cc1 [Compound C1] is ____.
24.6 mg/mL
